// provenance: PubChem BioAssay (NCI)

Tested on: A498 renal
testProtocol: NCI-60 one-dose screen, 48 h
conditionInfo: 10 µM
About 83,000 compounds went through this panel and 20% of them were active in at least one assay; those are over-represented in the sample as a whole. The source made the active and inactive calls. How the source made its calls: active means growth percent below 10; inactive means the rest.
Response enum: class 1 (active), class 0 (inactive)

Kindly provide the recorded test outcome for the following compound: O=C(CCCc1ccc(N(CCCl)CCCl)cc1)OCc1ccccc1
class 0

Kindly provide the recorded test outcome for the following compound: COC1[C@@H]2C[C@H]3C(C)(C)O[C@@](C/C=C(/C)C(=O)O)(C2=O)[C@]32Oc3c(CC=C(C)C)c4c(c(O)c3C(=O)[C@H]12)C=CC(C)(C)O4 (stereo not given in full)
class 1

Kindly provide the recorded test outcome for the following compound: C=C1[C@@H](C)C2[C@H](Cc3ccccc3)NC(=O)[C@]23[C@H](OC(C)=O)/C=C/[C@@](C)(O)C(=O)[C@@H](C)C/C=C/[C@H]3[C@@H]1O (stereo not given in full)
class 1

Kindly provide the recorded test outcome for the following compound: CC1=C2C(=C[C@@](C)(C=O)[C@@H]2O)C(=O)[C@](C)(O)C12CC2
class 1

Kindly provide the recorded test outcome for the following compound: N#Cc1c(-n2c(Br)c(Br)c3cc(Br)ccc32)[nH]c2c(Br)cc(Br)cc12
class 1

Kindly provide the recorded test outcome for the following compound: CN(CCF)/N=N/c1nc[nH]c1C(N)=O
class 0

Kindly provide the recorded test outcome for the following compound: COC(=O)[C@H]1[C@@H](O)[C@@]2(O)c3c(OC)cc(OC)cc3O[C@@]2(c2ccc(OC)cc2)[C@@H]1c1ccccc1
class 1

Kindly provide the recorded test outcome for the following compound: CC1=C2C(=O)[C@](C)(CO)C=C2C(=O)[C@](C)(O)C12CC2
class 1

Kindly provide the recorded test outcome for the following compound: CCC(C)[C@H]1C(=O)O[C@H](C(C)C)C(=O)N(C)[C@@H](C(C)C)C(=O)O[C@H](C(C)C)C(=O)N(C)[C@@H](C(C)C)C(=O)O[C@H](C(C)C)C(=O)N1C (stereo not given in full)
class 1

More entries:
Kindly provide the recorded test outcome for the following compound: Cc1ccc(CNc2nc3ccc(OC/C(=C/F)CN)cc3o2)cn1
class 0
